Study System: T1, recombinant human TIGIT (human, UniProt Q495A1 22-141, limits assumed)
T1 construct: recombinant human TIGIT used in Carterra SPR; also called hTIGIT
T1 sequence (looked up): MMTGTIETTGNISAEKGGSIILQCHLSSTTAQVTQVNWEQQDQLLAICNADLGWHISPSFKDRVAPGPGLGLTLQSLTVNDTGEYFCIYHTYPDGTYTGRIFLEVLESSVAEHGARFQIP
Test: SPR Carterra, average
Metric Name: log10(kon) (log10 of the value in M⁻¹ s⁻¹)
Scale type: logarithmic (base 10). Underlying kon unit: M⁻¹ s⁻¹.

TIGIT-SC121 (Fc fusion, VHH-Fc fusion in assay) VHH: EVQLVESGGGLVQPGGSLRLSCAASGFTFSPSWMGWFRQAPGKEREWVASVLRGGYTWYADSVKGRFTISADNSKNTAYLQMNSLKPEDTAVYYCTTEGFDPWGQGTLVTVSS; 5.54
TIGIT-SC54 (Fc fusion, VHH-Fc fusion in assay) VHH: EVQLVESGGGLVQPGGSLRLSCAASGFSFDDYVMGWFRQAPGKERELVAVIVGEAITRYADSVKGRFTISADNSKNTAYLQMNSLKPEDTAVYYCARRGGSGRAFDIWGQGTLVTVSS; 6.48
TIGIT-SC84 (Fc fusion, VHH-Fc fusion in assay) VHH: EVQLVESGGGLVQPGGSLRLSCAASGGTFTIYPMGWFRQAPGKEREWVAGINEYGGRYADSVKGRFTISADNSKNTAYLQMNSLKPEDTAVYYCARDLNAMGDAYDIWGQGTLVTVSS; 3.50
TIGIT-SC34 (Fc fusion, VHH-Fc fusion in assay) VHH: EVQLVESGGGLVQPGGSLRLSCAASGTTFSPYTMGWFRQAPGKEREFVASINSGSRTNYADSVKGRFTISADNSKNTAYLQMNSLKPEDTAVYYCVRSEIGWGQGTLVTVSS; 6.12
TIGIT-SC203 (Fc fusion, VHH-Fc fusion in assay) VHH: EVQLVESGGGLVQPGGSLRLSCAASGFTFSPSWMGWFRQAPGKEREWVASVLRGGYTWYADSVKGRFTISADNSKNTAYLQMNSLKPEDTAVYYCARDRGGSDWGQGTLVTVSS; 5.18
TIGIT-SC67 (Fc fusion, VHH-Fc fusion in assay) VHH: EVQLVESGGGLVQPGGSLRLSCAASGFTFDRSWMGWFRQAPGKEREWVSTIYSNGTPAYADSVKGRFTISADNSKNTAYLQMNSLKPEDTAVYYCARRGLPSYSYGMDVWGQGTLVTVSS; 5.35

Query block: Look up log10(kon) for this binder: TIGIT-SC112 (Fc fusion, VHH-Fc fusion in assay) VHH: EVQLVESGGGLVQPGGSLRLSCAASGRTLRRYVMGWFRQAPGKERELVAAIDWSGGSALYADSVKGRFTISADNSKNTAYLQMNSLKPEDTAVYYCTWGDGYNLGAFDIWGQGTLVTVSS
Result block: 5.47

Query block: Look up log10(kon) for this binder: TIGIT-SC28 (Fc fusion, VHH-Fc fusion in assay) VHH: EVQLVESGGGLVQPGGSLRLSCAASGRTFSTDAMGWFRQAPGKEREFVATINWKDGFTYYADSVKGRFTISADNSKNTAYLQMNSLKPEDTAVYYCAGVGHDYGDYLFDYWGQGTLVTVSS
Result block: 4.88
